// reported GI50 for each item listed
- System: SW-620 colon
- assayInfo: NCI tumour cell line growth inhibition, 48 h

The following compounds have reported results that may help.
[
  {
    "compound": "Cc1ccc(-n2nnnc2-c2cnc(N3CCOCC3)nc2-c2cccc(C(F)(F)F)c2)cc1",
    "recordedMeasurement": "1.93 µM"
  },
  {
    "compound": "NC(=O)c1sc(-n2cnc3cc(C(F)(F)F)ccc32)cc1OCc1ccccc1Br",
    "recordedMeasurement": "> 17.9 µM"
  },
  {
    "compound": "COc1ccc(-c2csc(NC(=O)CN3CCN(c4cc5c(cc4F)c(=O)c(C(=O)O)cn5C4CC4)CC3)n2)cc1",
    "recordedMeasurement": "3.9 µM"
  }
]

Tested on SW-620 colon, the item CC1(C)Cc2c(Br)c(Br)c(Br)c(OCC(O)CN3CCN(c4ccccn4)CC3)c2O1 (centres undefined) showed GI50 equal to 15.2 µM
